// percent inhibition of AR lookup, one value per entry
- System: AR mRNA
- Test Description: Dose-dependent antisense inhibition of human AR in HuVEC cells (electroporation, qRT-PCR RTS3559, IC50)
- Assay type: cell-based
- Test Parameters: 1000.0 nM; HuVEC, ~16 h; Table 14
Oligonucleotides are written 5' to 3', each unit as a sugar letter and its base; * is a phosphorothioate linkage, no mark a phosphodiester; rarer units and linkages stand in square brackets, end groups in braces. Plain capitals give the bases only. e = 2'-O-(2-methoxyethyl) (MOE); k = constrained ethyl (cEt); d = 2'-deoxy (DNA)

>  <Substance>
569223 (antisense eG*eT*kT*kG*kA*dT*dT*dT*dA*dA*dT*dG*dG*kT*kT*kG) [compound 569223]

>  <percent inhibition of AR / %>
87

$$$$
>  <Substance>
569238 (antisense eG*kT*kT*kG*dA*dT*dT*dT*dA*dA*dT*kG*kG*kT*eT*eG) [compound 569238]

>  <percent inhibition of AR / %>
88

$$$$
>  <Substance>
560132 (antisense kG*kT*kT*dG*dA*dT*dT*dT*dA*dA*dT*dG*kG*kT*kT*eG) [compound 560132]

>  <percent inhibition of AR / %>
85

$$$$
>  <Substance>
549458 (kG*kT*kT*dG*dA*dT*dT*dT*dA*dA*dT*dG*dG*kT*kT*kG) [compound 549458]

>  <percent inhibition of AR / %>
90

$$$$

---

- Tested on: AR mRNA
- Test Description: Dose-dependent antisense inhibition of human AR in HuVEC cells (electroporation, qRT-PCR RTS3559, IC50)
- Type: cell-based
- Test Parameters: Table 29; 46.9 nM, HuVEC, electroporation, approximately 16 hours
Oligonucleotides are written 5' to 3', each unit as a sugar letter and its base; * is a phosphorothioate linkage, no mark a phosphodiester; rarer units and linkages stand in square brackets, end groups in braces. Plain capitals give the bases only. k = constrained ethyl (cEt); [5mC] = 5-methylcytosine; d = 2'-deoxy (DNA)
Property Measured: percent inhibition of AR, 46.9 nM (%)

>  <Substance>
583567 (antisense kG*k[5mC]*kA*d[5mC]*dT*dT*dT*d[5mC]*d[5mC]*dT*dT*dG*d[5mC]*kT*kT*k[5mC]) [compound 583567]

>  <Target Or Test System>
AR mRNA

>  <Property Measured>
percent inhibition of AR, 46.9 nM

>  <Observed Measurement>
17

$$$$
>  <Substance>
583609 (antisense k[5mC]*kA*kG*d[5mC]*dT*dA*dG*d[5mC]*dT*d[5mC]*dG*d[5mC]*d[5mC]*k[5mC]*kG*k[5mC]) [compound 583609]

>  <Target Or Test System>
AR mRNA

>  <Property Measured>
percent inhibition of AR, 46.9 nM

>  <Observed Measurement>
16

$$$$
>  <Substance>
549372 (kA*kA*kG*dT*dT*dG*dT*dA*dG*dT*dA*dG*dT*k[5mC]*kG*k[5mC]) [compound 549372]

>  <Target Or Test System>
AR mRNA

>  <Property Measured>
percent inhibition of AR, 46.9 nM

>  <Observed Measurement>
7

$$$$
>  <Substance>
583583 (antisense kG*kA*k[5mC]*dT*dG*dA*dG*dG*d[5mC]*dA*dG*d[5mC]*dT*kG*k[5mC]*kG) [compound 583583]

>  <Target Or Test System>
AR mRNA

>  <Property Measured>
percent inhibition of AR, 46.9 nM

>  <Observed Measurement>
21

$$$$

---

Readings of Percent inhibition of AR full-length mRNA for the listed sequences
- Tested on: AR full-length mRNA
- Test Description: AR full-length mRNA in CWR22-RV1 cells (RNAiMax, RTS3559)
- Assay type: cell-based, human
- Test Parameters: dose 5.0 nM, 6 days
Oligonucleotides are written 5' to 3', each unit as a sugar letter and its base; * is a phosphorothioate linkage, no mark a phosphodiester; rarer units and linkages stand in square brackets, end groups in braces. Plain capitals give the bases only. e = 2'-O-(2-methoxyethyl) (MOE); k = constrained ethyl (cEt); [5mC] = 5-methylcytosine; d = 2'-deoxy (DNA)
Property Measured: Percent inhibition of AR full-length mRNA

>  <Residue String>
GTTGATTTAATGGTTG (all phosphorothioate, sugars by position not given here; further chemistry not fully specified) [ISIS 549458]

>  <Observed Measurement>
41%

$$$$
>  <Residue String>
AAGTTGTAGTAGTCGC (kA*kA*kG*dT*dT*dG*dT*dA*dG*dT*dA*dG*dT*k[5mC]*kG*k[5mC]) [ISIS 549372, targets exon 1]

>  <Observed Measurement>
53%

$$$$
>  <Residue String>
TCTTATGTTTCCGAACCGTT (sugars from the 5' end e5 d10 e5, backbone and methylation of C not given here) [ISIS 347526, reference compound]

>  <Observed Measurement>
3%

$$$$
>  <Residue String>
ACCAAGTTTCTTCAGC (LNA gapmer, phosphorothioate backbone, further chemistry not given here) [ISIS 554221, 3-10-3 LNA gapmer, phosphorothioate backbone, targeted to exon 4 of AR; benchmark, reference compound]

>  <Observed Measurement>
41%

$$$$
>  <Residue String>
CTAAACTTCCCGTGGC (k[5mC]*kT*kA*dA*dA*d[5mC]*dT*dT*d[5mC]*d[5mC]*d[5mC]*dG*dT*kG*kG*k[5mC]) [ISIS 549434, targets 3'-end of exon 8]

>  <Observed Measurement>
46%

$$$$

---

- Test system: AR mRNA
- Test Description: Dose-dependent antisense inhibition of human AR in HuVEC cells (electroporation, qRT-PCR RTS3559, IC50)
- Assay type: cell-based
- Test Parameters: HuVEC, ~16 h; Table 8
- Description: After a treatment period of approximately 16 hours, RNA was isolated from the cells and AR mRNA levels were measured by quantitative real-time PCR. Human AR primer probe set RTS3559 was used to measure mRNA levels. AR mRNA levels were adjusted according to total RNA content, as measured by RIBOGREEN®. […] After a treatment period of approximately 16 hours, RNA was isolated from the cells and AR mRNA levels were measured by quantitative real-time PCR. […]
Oligonucleotides are written 5' to 3', each unit as a sugar letter and its base; * is a phosphorothioate linkage, no mark a phosphodiester; rarer units and linkages stand in square brackets, end groups in braces. Plain capitals give the bases only. e = 2'-O-(2-methoxyethyl) (MOE); k = constrained ethyl (cEt); [5mC] = 5-methylcytosine; d = 2'-deoxy (DNA)
Flag rule - IC50 less than 90 nM flags 1.0; the remaining entries get 0.0.

>  <Substance>
560098 (kT*kG*kA*dT*dT*dT*dA*dA*dT*dG*dG*dT*dT*kG*k[5mC]*kA; further chemistry not given here) [compound 560098]

>  <Class>
1.0

$$$$
>  <Substance>
560137 (antisense TTGATTTAATGGTTGC; all C 5-methyl, all phosphorothioate, sugars by position not given here; further chemistry not fully specified) [compound 560137]

>  <Class>
1.0

$$$$
>  <Substance>
569222 (antisense eT*eT*kG*kA*kT*dT*dT*dA*dA*dT*dG*dG*dT*kT*kG*k[5mC]) [compound 569222]

>  <Class>
1.0

$$$$
>  <Substance>
549457 (kT*kT*kG*dA*dT*dT*dT*dA*dA*dT*dG*dG*dT*kT*kG*k[5mC]) [compound 549457]

>  <Class>
1.0

$$$$
>  <Substance>
569213 (antisense kT*kG*kA*dT*dT*dT*dA*dA*dT*dG*dG*dT*kT*kG*k[5mC]*eA) [compound 569213]

>  <Class>
1.0

$$$$
>  <Substance>
549458 (kG*kT*kT*dG*dA*dT*dT*dT*dA*dA*dT*dG*dG*kT*kT*kG) [compound 549458]

>  <Class>
0.0

$$$$
>  <Substance>
569236 (antisense eT*kG*kA*kT*dT*dT*dA*dA*dT*dG*dG*kT*kT*kG*e[5mC]*eA) [compound 569236]

>  <Class>
0.0

$$$$
>  <Substance>
569216 (antisense eT*kG*kA*kT*dT*dT*dA*dA*dT*dG*dG*dT*kT*kG*k[5mC]*eA) [compound 569216]

>  <Class>
1.0

$$$$

---

- Test Parameters: cynomolgus monkey, in vivo, sc, 40 mg/kg
Property Measured: Body Wt (kg)

>  <Substance>
TGATTTAATGGTTGCA [ISIS 569236] (cEt/MOE gapmer chemistry, further chemistry not given here)

>  <Property Measured>
Body Wt

>  <Observed Measurement>
2.4

$$$$
>  <Substance>
ISIS 583918: antisense compound targeted to human AR (AGTCGCGACTCTGGTA; 3-10-3 (S)-cEt gapmer, further chemistry not given here)

>  <Property Measured>
Body Wt

>  <Observed Measurement>
2.5

$$$$
>  <Substance>
ISIS 584468: antisense compound targeted to human AR (CATTGTACTATGCCAG; 3-10-3 (S)-cEt gapmer, further chemistry not given here)

>  <Property Measured>
Body Wt

>  <Observed Measurement>
2.5

$$$$
>  <Substance>
TGATTTAATGGTTGCA [ISIS 569213] (cEt/MOE gapmer chemistry, further chemistry not given here)

>  <Property Measured>
Body Wt

>  <Observed Measurement>
2.4

$$$$
>  <Substance>
TGATTTAATGGTTGCA [ISIS 569216] (cEt/MOE gapmer chemistry, further chemistry not given here)

>  <Property Measured>
Body Wt

>  <Observed Measurement>
2.6

$$$$
>  <Substance>
ISIS 584149: antisense compound targeted to human AR (GTCAATATCAAAGCAC; 3-10-3 (S)-cEt gapmer, further chemistry not given here)

>  <Property Measured>
Body Wt

>  <Observed Measurement>
2.5

$$$$

src = patent USRE48461E1
